All figures here come from PubChem BioAssay (NCI).

Give growth for every item shown.
Test system: RXF 393 renal
test-summary: NCI-60 one-dose screen, 48 h (100 = growth as untreated, 0 = no growth, -100 = all killed)
test-conditions: 10 µM unless noted
Compounds without any hit were thinned out: in the full panel of roughly 83,000, 20% have a hit.
One number for each entry, in %.

These recorded examples may help you get a feel for the data.
[
  {
    "compound": "COc1ccc(/C(C)=C(\\c2ccc(OCCN3CCCCCC3)cc2)c2ccc(OC(=O)C3CCCCC3)cc2)cc1",
    "result-number": -83.1
  },
  {
    "compound": "CN1C(=O)N(C)C2(c3ccccc3)N(CC(=O)Nc3ccccc3O)C(=O)NC12c1ccccc1 (stereo not given)",
    "result-number": 113
  },
  {
    "compound": "NS(=O)(=O)c1ccc(C(=O)N=Nc2c(O)[nH]c3c(F)cccc23)cc1",
    "result-number": 97.3
  },
  {
    "compound": "C=C[C@]1(C)C=C2CC[C@@H]3C(C)(C)C(=O)CC[C@@]3(C)[C@@H]2CC1",
    "result-number": 127
  },
  {
    "compound": "COc1ccc2c(c1)c(-c1nc(-c3c[nH]c4c(Cl)nccc34)cs1)cn2C",
    "result-number": 83.2
  }
]

Value sought for every listed compound: growth.
1. CC1=C2[C@@H](CC1)[C@]1(C)O[C@@](C3CC3)(C[C@H]1OC(=O)CO)[C@H]2OC(=O)/C=C/c1ccccc1
2. Cc1ccc(S(=O)(=O)Nc2cc(Sc3ccccc3)c(O)c3ccccc23)cc1
3. Nc1nc(N)c2c(n1)NC(c1ccc(Cl)cc1)CC(c1cccc(Nc3ccncc3)c1)=N2 (stereo not given)
4. CC(=NCc1ccccc1)c1ccc(O)cc1O

Output:
1. 38.4
2. 105
3. 49.2
4. 122

Input: Given "CCN(CC)CC(=O)Nc1ccc2ncnc(Nc3ccc(Oc4cccc(F)c4)c(Cl)c3)c2c1" , state its recorded growth.
Output: 43.2
